target: AKR1C4 (Homo sapiens (Human)); experiment: AKR enzyme inhibition assay, AKR1C4; conditions: Table 2; recombinant enzyme; read-out: IC50 ± SD AKR1C4
Sequence (P17516 whole entry): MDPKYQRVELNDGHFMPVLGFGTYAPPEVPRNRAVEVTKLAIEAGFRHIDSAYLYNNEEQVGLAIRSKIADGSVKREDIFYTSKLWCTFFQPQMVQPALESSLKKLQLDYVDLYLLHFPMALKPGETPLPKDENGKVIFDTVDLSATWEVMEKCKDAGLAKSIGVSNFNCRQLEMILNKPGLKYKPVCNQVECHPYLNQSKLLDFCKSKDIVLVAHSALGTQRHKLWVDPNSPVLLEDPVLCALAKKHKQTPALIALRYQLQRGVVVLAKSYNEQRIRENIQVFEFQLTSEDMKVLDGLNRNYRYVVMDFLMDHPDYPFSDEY
attributeMeasured: pIC50
Schema: pIC50 number; meaning minus log10 of the concentration expressed in molar units.

# count of solved cases: 2
> print(dat)
                                 itemsmiles                    assaysystem  observed
1  Cc1ccc(CNC(=O)c2cc(/C=C/C(=O)O)cc(-c3ccc4c(c3)OCO4)c2)cc1  AKR1C4 (Homo sapiens (Human))      4.80
2  Cc1ccc(CNC(=O)c2cc(/C=C/C(=O)O)cc(-c3ccc(C)cc3)c2)cc1  AKR1C4 (Homo sapiens (Human))      5.00

Could you now consider this next molecule?
## Input Supply recorded pIC50 for `Cc1ccc(CNC(=O)c2cc(/C=C/C(=O)O)cc(-c3ccc(-c4ccccc4)cc3)c2)cc1` here.
## Output 5.62

###

target: UniProt:P17516; assay: AKR enzyme inhibition assay, AKR1C4; format: biochemical; settings: Table 2; recombinant enzyme; read-out: IC50 ± SD AKR1C4
Note: every record was labeled by where its IC50 sits among bottom bin (below 20 µM), middle bin (20 µM to below 30 µM), top bin (30 µM or more)

Examples with answers:
> print(dat)
                                 itemsmiles  assignedclass
1  Cc1ccc(CNC(=O)c2cc(Br)cc(/C=C/C(=O)O)c2)cc1        top bin
2  Cc1ccc(CNC(=O)c2cc(/C=C/C(=O)O)cc(-c3ccc(Br)cc3)c2)cc1     bottom bin
3  Cc1ccc(CNC(=O)c2cc(/C=C/C(=O)O)cc(-c3ccc(F)cc3)c2)cc1     bottom bin
4  C/C=C\Cc1cc(/C=C/C(=O)O)cc(C(=O)NCc2ccc(C)cc2)c1     middle bin
5  CC(C)=CCOc1cc(/C=C/C(=O)O)cc(C(=O)NCc2ccc(C)cc2)c1        top bin
6  Cc1ccc(CNC(=O)c2cc(/C=C/C(=O)O)cc(-c3ccccc3F)c2)cc1     bottom bin
7  Cc1ccc(CNC(=O)c2cc(/C=C/C(=O)O)cc(-c3ccc(Cl)cc3)c2)cc1     bottom bin
8  Cc1ccc(CNC(=O)c2cc(/C=C/C(=O)O)cc(-c3ccc4ccccc4c3)c2)cc1     bottom bin

## Input Hi there! Could you help me figure out the category for `C/C=C/Cc1cc(/C=C/C(=O)O)cc(C(=O)NCc2ccc(C)cc2)c1` please?
## Output top bin

## Input Hi there! Could you help me figure out the category for `Cc1ccc(CNC(=O)c2cc(/C=C/C(=O)O)cc(-c3ccc4c(c3)OCCO4)c2)cc1` please?
## Output top bin

## Input Hi there! Could you help me figure out the category for `Cc1ccc(CNC(=O)c2cc(/C=C/C(=O)O)cc(-c3cccc(F)c3)c2)cc1` please?
## Output bottom bin

## Input Hi there! Could you help me figure out the category for `Cc1ccc(CNC(=O)c2cc(/C=C/C(=O)O)cc(-c3ccc4cccnc4c3)c2)cc1` please?
## Output middle bin

## Input Hi there! Could you help me figure out the category for `Cc1ccc(CNC(=O)c2cc(/C=C/C(=O)O)cc(-c3ccc4nccnc4c3)c2)cc1` please?
## Output top bin

###

biological target: AKR1C3 (Homo sapiens (Human), UniProt P42330); assay: AKR enzyme inhibition assay, NADP+ dependent oxidation of S-tetralol, AKR1C3; type: biochemical; conditions: Table 2; ratio of AKR1C2 to AKR1C3 IC50
Sequence (P42330 whole entry): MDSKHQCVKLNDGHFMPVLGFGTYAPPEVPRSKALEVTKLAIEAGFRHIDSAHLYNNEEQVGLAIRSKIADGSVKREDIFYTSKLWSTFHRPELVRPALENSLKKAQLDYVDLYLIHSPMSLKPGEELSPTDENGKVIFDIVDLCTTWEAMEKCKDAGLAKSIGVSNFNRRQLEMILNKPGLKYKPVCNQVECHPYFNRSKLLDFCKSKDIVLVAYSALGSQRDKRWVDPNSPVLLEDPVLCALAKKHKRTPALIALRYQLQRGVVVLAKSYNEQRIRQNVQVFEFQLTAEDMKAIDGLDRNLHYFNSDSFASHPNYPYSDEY
// Selectivity 1C2:1C3 lookup, one value per entry
Form field (numeric): enter value without unit.

> print(dat)
                                 itemsmiles                               assaysystem  observed
1  Cc1ccc(CNC(=O)c2cc(/C=C/C(=O)O)cc(-c3ccc4cccnc4c3)c2)cc1  AKR1C3 (Homo sapiens (Human), UniProt P42330)       109

Could you now consider this next compound?
## Input Find Selectivity 1C2:1C3 for `Cc1ccc(CNC(=O)c2cc(/C=C/C(=O)O)cc(-c3ccc(-c4ccccc4)cc3)c2)cc1` on AKR1C3 (Homo sapiens (Human), UniProt P42330) and write it down.
## Output 580
